Assignment: determine reported CC50 at 48 h for the given compounds.
# assay.comment: Cytotoxicity against Balb/c mouse lymph node cells after 48 hrs by MTT assay
# Type: cell-based
Hi! Could you send only the number? It should be in µM, unit omitted.

For the compound shown here, COc1ccc(C(/C=C/c2ccc(Cl)cc2Cl)=N/O)cc1 , give the reported CC50 at 48 h.
25

Fill blank: measured CC50 at 48 h of the compound COc1ccc(C(/C=C/c2ccccc2)=N/O)cc1 is ____.
28.6

Value lookup for CC50 at 48 h; key = O/N=C(\C=C\c1cccs1)c1ccc(Br)cc1
15.3

Which CC50 at 48 h is listed for COc1ccc(C(/C=C/c2ccc(F)cc2)=N/O)cc1 ?
13.5

Please give the measured CC50 at 48 h for this compound: Cc1ccc(C(/C=C/c2ccc(Cl)cc2)=N/O)cc1
21.3

Quick check: CC50 at 48 h of COc1ccc(/C=C/C(=O)c2ccc(OC)cc2)cc1 ?
1790

I would be grateful if you could share the reported CC50 at 48 h for COc1ccc(/C=C/C(=N\O)c2ccc(Br)cc2)cc1 .
23.7

Bench note: what CC50 at 48 h did O/N=C(\C=C\c1ccc(Cl)cc1)c1ccc(F)cc1 show?
14.8

Param item = COc1ccc(/C=C/C(=N\O)c2ccc(Cl)cc2)cc1 ; retrieve measured CC50 at 48 h.
24.3

// CC50 at 48 h lookup, key: COc1ccc(/C=C/C(=N\O)c2ccc(OC)cc2)cc1
2170

// query CC50 at 48 h value for entry O/N=C(\C=C\c1ccc(Cl)cc1)c1ccc(Br)cc1
24.7

----------
# assay.comment: Immunosuppressive activity in anti-CD3/[…] co-stimulated Balb/c mouse lymph node cells assessed as inhibition of cell proliferation after 72 hrs by ELISA
# Assay type: functional
reported.metric: IC50 (µM)
Field format: number, assumed µM, no unit text.

What value of measured IC50 is listed for O/N=C(\C=C\c1ccc(Cl)cc1)c1ccc(F)cc1 ?
10.9

Find the recorded IC50 belonging to COc1ccc(C(/C=C/c2ccc(Cl)cc2)=N/O)cc1 and report it.
11.5

Which IC50 value is on record for O/N=C(\C=C\c1ccc(Cl)cc1)c1ccc(Cl)cc1 ?
9.15

Quick check: IC50 of O/N=C(\C=C\c1ccc(Cl)cc1)c1ccc(Br)cc1 ?
14.7

What value of IC50 has been reported for the following molecule? COc1ccc(C(/C=C/c2cccs2)=N/O)cc1
8.49

Consider the molecule O/N=C(\C=C\c1cccs1)c1ccc(Cl)cc1 and give its measured IC50.
9.59

Fill blank: measured IC50 of the molecule Cc1ccc(C(/C=C/c2ccc(F)cc2)=N/O)cc1 is ____.
11.2

Look at this molecule and give its reported IC50. Cc1ccc(C(/C=C/c2ccc(Cl)cc2)=N/O)cc1
11.6

Param item = COc1ccc(C(/C=C/c2ccc(F)cc2)=N/O)cc1 ; retrieve measured IC50.
11

Consider the molecule COc1ccc(C(/C=C/c2ccccc2)=N/O)cc1 and give its measured IC50.
11.8

Report IC50 for O/N=C(\C=C\c1cccs1)c1ccc(Br)cc1 please.
11.2

Endpoint output: IC50 of Cc1ccc(C(/C=C/c2ccc(Cl)c(Cl)c2)=N/O)cc1 . Value?
6.34

Look up IC50 for this molecule: COc1ccc(C(=O)/C=C/c2ccc(Br)cc2)cc1
25.1

Query: IC50; subject: COc1ccc(/C=C/C(=N\O)c2ccc(C)cc2)cc1
6.24

Find the recorded IC50 belonging to Cc1ccc(C(/C=C/c2ccc(Br)cc2)=N/O)cc1 and report it.
11.6

Returns the measured IC50 for the input molecule. Input: COc1ccc(/C=C/C(=N\O)c2ccc(Cl)cc2)cc1
5.85

Dear colleague, I am looking for the recorded IC50 of the following molecule: COc1ccc(/C=C/C(=O)c2ccc(OC)cc2)cc1
23.6

So what's the measured IC50 for this one? COc1ccc(C(/C=C/c2ccc(Cl)cc2Cl)=N/O)cc1
11.2

Form field: reported IC50 of O/N=C(\C=C\c1ccc(F)cc1)c1ccc(Br)cc1
13.3

# IC50 lookup, item O/N=C(\C=C\c1ccc(F)cc1)c1ccc(Cl)cc1
10.6

Would you mind telling me what IC50 value was observed for COc1ccc(C(/C=C/c2ccc(Br)cc2)=N/O)cc1 ?
13.9

IC50 lookup needed for COc1ccc(/C=C/C(=N\O)c2ccc(OC)cc2)cc1 , thanks.
12.3
